Entry source: patent US20040176431A1

- target_under_test: CDK4/cyclin D3 (Homo sapiens, UniProt P11802)
- Construct: made in house; host or cells: insect cells (baculovirus co-infection)
- Sequence (P11802 whole entry): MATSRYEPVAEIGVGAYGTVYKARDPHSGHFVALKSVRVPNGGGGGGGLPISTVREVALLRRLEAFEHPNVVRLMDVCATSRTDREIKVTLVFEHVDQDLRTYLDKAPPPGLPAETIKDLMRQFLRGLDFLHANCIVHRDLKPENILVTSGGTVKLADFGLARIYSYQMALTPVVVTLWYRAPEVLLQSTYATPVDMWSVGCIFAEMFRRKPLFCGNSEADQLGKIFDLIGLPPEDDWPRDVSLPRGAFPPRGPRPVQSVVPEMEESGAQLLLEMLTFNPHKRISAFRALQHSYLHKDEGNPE
- Sequence (P30281 1-264 partner limits assumed): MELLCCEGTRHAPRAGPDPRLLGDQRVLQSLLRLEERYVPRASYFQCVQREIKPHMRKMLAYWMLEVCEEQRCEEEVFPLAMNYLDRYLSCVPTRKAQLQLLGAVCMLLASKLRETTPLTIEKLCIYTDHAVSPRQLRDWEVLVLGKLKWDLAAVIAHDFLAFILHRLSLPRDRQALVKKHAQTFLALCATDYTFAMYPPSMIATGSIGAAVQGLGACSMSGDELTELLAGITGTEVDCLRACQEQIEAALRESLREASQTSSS
- protocol_notes: Inhibition of CDK4/Cyclin D retinoblastoma kinase activity;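 as to % Inhib CDK4/D @ 1 μM: relative to DMSO control wells without compound minus no-enzyme background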
- Type: biochemical
- measurement_parameters: test compound at 1 μM (head line shifted: 'mM' printed beside 'Structure'); read-out: % Inhib CDK4/D @ 1 μM
Measured inhibition at 1 µM of individual entries
# output: bare number, implied unit %

Problem: Output inhibition at 1 µM of Nc1nc(Nc2ccc([S+]([O-])CCCO)cc2)sc1C(=O)c1c(Cl)cccc1Cl (centres unmarked)
Result: 76.8

Problem: Output inhibition at 1 µM of CC(C)=CC[S+]([O-])c1ccc(Nc2nc(N)c(C(=O)c3c(Cl)cccc3Cl)s2)cc1 (centres unmarked)
Result: 36.4

* * *

- target_under_test: CDK4/cyclin D3 (Homo sapiens)
- Construct: made in house; host or cells: insect cells (baculovirus co-infection)
- protocol_notes: Inhibition of CDK4/Cyclin D retinoblastoma kinase activity
- Assay type: biochemical
- measurement_parameters: test compound at 0.03 (unit cell empty, head line shifted; μM)
observable: % Inhib CDK4/D @ 0.03 (%)
# output: bare number, implied unit %

{"columns": ["compound", "observable", "unit_string", "test_value"],
 "data": [
  ["Nc1nc(Nc2ccc([S+]([O-])CCO)cc2)sc1C(=O)c1c(Cl)cccc1Cl (centres unmarked) [DD(110)]", "% Inhib CDK4/D @ 0.03", "%", 3.7],
  ["Cc1noc(C)c1CS(=O)(=O)c1ccc(Nc2nc(N)c(C(=O)c3c(Cl)cccc3Cl)s2)cc1 [DD(162)]", "% Inhib CDK4/D @ 0.03", "%", 5.8],
  ["Nc1nc(Nc2ccc(S(=O)(=O)CC3CNC(=O)O3)cc2)sc1C(=O)c1c(Cl)cccc1Cl (centres unmarked) [DD(209)]", "% Inhib CDK4/D @ 0.03", "%", "−10"],
  ["COC(=O)CS(=O)(=O)c1ccc(Nc2nc(N)c(C(=O)c3c(Cl)cccc3Cl)s2)cc1 [DD(186)]", "% Inhib CDK4/D @ 0.03", "%", 7],
  ["CC(=O)OCCS(=O)(=O)c1ccc(Nc2nc(N)c(C(=O)c3c(Cl)cccc3Cl)s2)cc1 [DD(197)]", "% Inhib CDK4/D @ 0.03", "%", 6.5]
]}

Problem: State recorded % Inhib CDK4/D @ 0.03 with CDK4/cyclin D3 (Homo sapiens), entry CC(C)CCS(=O)(=O)c1ccc(Nc2nc(N)c(C(=O)c3c(Cl)cccc3Cl)s2)cc1 [DD(173)] , no comment.
Result: −11

Problem: State recorded % Inhib CDK4/D @ 0.03 with CDK4/cyclin D3 (Homo sapiens), entry NC(=O)CCSc1ccc(Nc2nc(N)c(C(=O)c3c(Cl)cccc3Cl)s2)cc1 , no comment.
Result: 24

Problem: State recorded % Inhib CDK4/D @ 0.03 with CDK4/cyclin D3 (Homo sapiens), entry CC(=O)OCCS(=O)(=O)c1ccc(Nc2nc(N)c(C(=O)c3c(Cl)cccc3Cl)s2)cc1 [DD(237)] , no comment.
Result: −1.7

* * *

- target_under_test: CDK2/cyclin A (Homo sapiens, UniProt P24941)
- Construct: cyclin A: E. coli, then limited proteolysis
- protocol_notes: Inhibition of CDK2/Cyclin A retinoblastoma kinase activity
- measurement_parameters: apparent Ki, Rb fragment substrate
Measured pKi of individual entries
The quantity pKi is defined as the negative base-10 logarithm of the molar concentration.

{"columns": ["compound", "test_value"],
 "data": [
  ["NC(=O)C[S+]([O-])c1ccc(Nc2nc(N)c(C(=O)c3c(Cl)cccc3Cl)s2)cc1 (stereo not shown) [Z(2)]", 7.21]
]}

Problem: Output pKi of C[S+]([O-])c1cccc(Nc2nc(N)c(C(=O)c3c(Cl)cccc3Cl)s2)c1 (stereo not shown) [Z(1)]
Result: 6.35

Problem: Output pKi of CCSCCNS(=O)(=O)c1ccc(Nc2nc(N)c(C(=O)c3c(F)cccc3F)s2)cc1 [Example A(19)]
Result: 8.74

Problem: Output pKi of Cc1csc(NS(=O)(=O)c2ccc(Nc3nc(N)c(C(=O)c4c(F)cccc4F)s3)cc2)n1 [E(1)]
Result: 7.82

* * *

- target_under_test: CDK4/cyclin D3 (Homo sapiens)
- Construct: made in house; host or cells: insect cells (baculovirus co-infection)
- protocol_notes: Inhibition of CDK4/Cyclin D retinoblastoma kinase activity
- Format: biochemical
- measurement_parameters: test compound at 0.03 (unit cell empty, head line shifted; μM); read-out: % Inhib CDK4/D @ 0.03
Assign label 1 to entries whose inhibition at 0.03 µM meets or exceeds 10%; assign label 0 to the rest.

Problem: Check if inhibition at 0.03 µM >= 10% (inclusive). Item: Cc1noc(C)c1CSc1ccc(Nc2nc(N)c(C(=O)c3c(Cl)cccc3Cl)s2)cc1 [DD(2)]
Result: label 1

* * *

- target_under_test: CDK4/cyclin D3 (Homo sapiens, UniProt P11802)
- Construct: made in house; host or cells: insect cells (baculovirus co-infection)
- protocol_notes: Inhibition of CDK4/Cyclin D retinoblastoma kinase activity;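 as to % Inhib CDK4/D @ 1 μM: relative to DMSO control wells without compound minus no-enzyme background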
- Type: biochemical
- measurement_parameters: test compound at 1 μM (head line shifted: 'mM' printed beside 'Structure'); 1 µM
Measured % Inhib CDK4/D @ 1 μM of individual entries
# output: bare number, implied unit %

Recorded results for 2 compounds are shown here.
{"columns": ["compound", "target_under_test", "% Inhib CDK4/D @ 1 μM / %"],
 "data": [
  ["NC(=O)CCS(=O)(=O)c1ccc(Nc2nc(N)c(C(=O)c3c(Cl)cccc3Cl)s2)cc1 [DD(228)]", "CDK4/cyclin D3 (Homo sapiens, UniProt P11802)", 43],
  ["COC(=O)/C=C/CS(=O)(=O)c1ccc(Nc2nc(N)c(C(=O)c3c(Cl)cccc3Cl)s2)cc1 [DD(164)]", "CDK4/cyclin D3 (Homo sapiens, UniProt P11802)", "−6.9"]
]}

Problem: Output % Inhib CDK4/D @ 1 μM of Nc1nc(Nc2ccc(S(=O)(=O)CCN3CCCCC3)cc2)sc1C(=O)c1c(Cl)cccc1Cl [DD(211)]
Result: −0.2

Problem: Output % Inhib CDK4/D @ 1 μM of CC1(CS(=O)(=O)c2ccc(Nc3nc(N)c(C(=O)c4c(Cl)cccc4Cl)s3)cc2)CO1 (centres unmarked) [DD(180)]
Result: 4.2

Problem: Output % Inhib CDK4/D @ 1 μM of CC(C)(CO)CS(=O)(=O)c1ccc(Nc2nc(N)c(C(=O)c3c(Cl)cccc3Cl)s2)cc1 [DD(240)]
Result: 8.7

Problem: Output % Inhib CDK4/D @ 1 μM of Nc1nc(Nc2ccc(S(=O)(=O)CC3CNC(=O)O3)cc2)sc1C(=O)c1c(Cl)cccc1Cl (centres unmarked) [DD(209)]
Result: −21

Problem: Output % Inhib CDK4/D @ 1 μM of COC(=O)/C=C/CS(=O)(=O)c1ccc(Nc2nc(N)c(C(=O)c3c(Cl)cccc3Cl)s2)cc1 [DD(204)]
Result: 20.8

Problem: Output % Inhib CDK4/D @ 1 μM of Nc1nc(Nc2ccc(S(=O)(=O)CC3CC3)cc2)sc1C(=O)c1c(Cl)cccc1Cl [DD(176)]
Result: 5.4

* * *

Measured inhibition at 1 µM of individual entries
- target_under_test: CDK4/cyclin D3 (Homo sapiens, UniProt P11802)
- Construct: made in house; host or cells: insect cells (baculovirus co-infection)
- protocol_notes: Inhibition of CDK4/Cyclin D retinoblastoma kinase activity;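 as to % Inhib CDK4/D @ 1 μM: relative to DMSO control wells without compound minus no-enzyme background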
- Assay type: biochemical
- measurement_parameters: test compound at 1 μM (head line shifted: 'mM' printed beside 'Structure'); read-out: % Inhib CDK4/D @ 1 μM
# output: bare number, implied unit %

Recorded results for 4 compounds are shown here.
{"columns": ["compound", "test_value"],
 "data": [
  ["Nc1nc(Nc2cccc(SCC(=O)Nc3ccccc3)c2)sc1C(=O)c1c(Cl)cccc1Cl [DD(55)]", 63.4],
  ["NC(=O)C[S+]([O-])c1cccc(Nc2nc(N)c(C(=O)c3c(Cl)cccc3Cl)s2)c1 (centres unmarked) [DD(141)]", 64.5],
  ["COc1cccc(CSc2cccc(Nc3nc(N)c(C(=O)c4c(Cl)cccc4Cl)s3)c2)c1 [DD(57)]", 24.6],
  ["Nc1nc(Nc2cccc([S+]([O-])CC3CCCO3)c2)sc1C(=O)c1c(Cl)cccc1Cl (centres unmarked) [DD(138)]", 63.8]
]}

Problem: Output inhibition at 1 µM of CC(C)CCOC(=O)CSc1cccc(Nc2nc(N)c(C(=O)c3c(Cl)cccc3Cl)s2)c1 [DD(71)]
Result: 36

Problem: Output inhibition at 1 µM of NC(=O)CSc1ccc(Nc2nc(N)c(C(=O)c3c(Cl)cccc3Cl)s2)cc1 [DD(21)]
Result: 85.5

Problem: Output inhibition at 1 µM of Nc1nc(Nc2ccc([S+]([O-])CCN3CCCCC3)cc2)sc1C(=O)c1c(Cl)cccc1Cl (centres unmarked) [DD(91)]
Result: 68.2

Problem: Output inhibition at 1 µM of CC(C)CCOC(=O)CS(=O)(=O)c1ccc(N(C)c2nc(N)c(C(=O)c3c(Cl)cccc3Cl)s2)cc1 [DD(231)]
Result: 33.3
